# tested target: human TAS1R2-WT/TAS1R3-F514L (Homo sapiens, UniProt Q7RTX0+Q8TE23, F514L)
# Construct: expressed in transfected cells; host or cells: HEK293T stably expressing Gα16gust44
# method description: Calcium mobilisation assay, TAS1R2-WT with TAS1R3 variant F514L
# Type: cell-based
# protocol conditions: maximal signal amplitude
measurement kind: Max ΔF/F0
The response must contain the number and no unit.

Kindly note the recorded Max ΔF/F0 for `OC[C@H]1O[C@H](O[C@]2(CCl)O[C@H](CCl)[C@@H](O)[C@@H]2O)[C@H](O)[C@@H](O)[C@H]1Cl` , which is 0.49

---

# tested target: human TAS1R2-WT/TAS1R3-A5T (Homo sapiens, UniProt Q7RTX0+Q8TE23, A5T)
# Construct: expressed in transfected cells; host or cells: HEK293T stably expressing Gα16gust44
# Sequence (Q8TE23 20-839): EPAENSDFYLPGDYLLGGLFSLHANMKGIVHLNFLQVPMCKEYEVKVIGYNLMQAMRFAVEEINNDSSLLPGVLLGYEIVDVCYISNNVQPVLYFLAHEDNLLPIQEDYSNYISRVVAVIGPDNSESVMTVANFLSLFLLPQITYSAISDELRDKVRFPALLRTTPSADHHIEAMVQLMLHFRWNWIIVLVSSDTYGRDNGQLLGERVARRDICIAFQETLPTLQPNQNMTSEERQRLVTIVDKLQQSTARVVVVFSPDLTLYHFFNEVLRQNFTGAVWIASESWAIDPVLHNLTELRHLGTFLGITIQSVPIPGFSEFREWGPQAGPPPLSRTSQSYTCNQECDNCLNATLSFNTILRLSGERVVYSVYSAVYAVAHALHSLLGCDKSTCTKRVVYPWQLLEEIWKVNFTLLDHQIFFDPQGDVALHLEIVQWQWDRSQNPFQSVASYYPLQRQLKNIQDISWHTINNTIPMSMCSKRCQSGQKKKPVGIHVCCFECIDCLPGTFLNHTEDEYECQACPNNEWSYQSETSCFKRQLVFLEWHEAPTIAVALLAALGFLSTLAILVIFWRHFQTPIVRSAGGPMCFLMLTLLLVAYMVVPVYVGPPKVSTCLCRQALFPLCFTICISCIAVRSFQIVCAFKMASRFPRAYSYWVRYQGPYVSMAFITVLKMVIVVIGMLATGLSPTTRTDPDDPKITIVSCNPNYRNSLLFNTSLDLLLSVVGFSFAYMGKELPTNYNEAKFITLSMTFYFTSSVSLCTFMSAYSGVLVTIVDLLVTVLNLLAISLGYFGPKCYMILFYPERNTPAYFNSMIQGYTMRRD
# Sequence (Q7RTX0 21-852): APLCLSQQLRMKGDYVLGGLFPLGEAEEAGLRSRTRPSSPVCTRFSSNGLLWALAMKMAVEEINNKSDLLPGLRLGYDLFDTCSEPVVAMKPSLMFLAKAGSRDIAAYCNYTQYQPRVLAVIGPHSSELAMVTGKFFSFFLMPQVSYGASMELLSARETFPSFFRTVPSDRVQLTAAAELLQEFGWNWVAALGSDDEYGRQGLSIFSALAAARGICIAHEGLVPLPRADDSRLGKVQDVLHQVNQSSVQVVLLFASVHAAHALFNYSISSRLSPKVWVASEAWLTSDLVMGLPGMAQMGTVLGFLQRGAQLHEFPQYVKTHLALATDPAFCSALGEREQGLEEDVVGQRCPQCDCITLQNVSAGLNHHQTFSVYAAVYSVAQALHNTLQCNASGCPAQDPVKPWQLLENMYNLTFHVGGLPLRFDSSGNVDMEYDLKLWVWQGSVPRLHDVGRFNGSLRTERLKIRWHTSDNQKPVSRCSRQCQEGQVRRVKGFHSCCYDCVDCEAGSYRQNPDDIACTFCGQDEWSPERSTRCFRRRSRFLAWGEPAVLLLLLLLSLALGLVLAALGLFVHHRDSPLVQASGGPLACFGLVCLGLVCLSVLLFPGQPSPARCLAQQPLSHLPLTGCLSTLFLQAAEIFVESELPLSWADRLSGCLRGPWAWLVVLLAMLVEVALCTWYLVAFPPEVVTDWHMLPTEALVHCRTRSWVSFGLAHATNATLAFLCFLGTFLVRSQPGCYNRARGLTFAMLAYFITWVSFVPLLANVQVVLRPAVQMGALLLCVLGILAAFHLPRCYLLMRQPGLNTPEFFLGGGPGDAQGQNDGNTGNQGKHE
# method description: Calcium mobilisation assay, TAS1R2-WT with TAS1R3 variant A5T
# Assay type: cell-based
# protocol conditions: maximal signal amplitude
measurement kind: Max ΔF/F0
The response must contain the number and no unit.

Measured Max ΔF/F0 (human TAS1R2-WT/TAS1R3-A5T (Homo sapiens, UniProt Q7RTX0+Q8TE23, A5T)), entry C=C1C[C@@]23CC[C@H]4[C@@](C)(CCC[C@@]4(C)C(=O)O[C@@H]4O[C@H](CO)[C@@H](O)[C@H](O[C@@H]5O[C@H](CO)[C@@H](O)[C@H](O)[C@H]5O)[C@H]4O[C@@H]4O[C@H](CO)[C@@H](O)[C@H](O)[C@H]4O)[C@@H]2CC[C@]1(O[C@@H]1O[C@H](CO)[C@@H](O)[C@H](O[C@@H]2O[C@H](CO)[C@@H](O)[C@H](O)[C@H]2O)[C@H]1O[C@@H]1O[C@H](CO)[C@@H](O)[C@H](O)[C@H]1O)C3 [Rebaudioside M, rebaudioside M] : 1.06

Measured Max ΔF/F0 (human TAS1R2-WT/TAS1R3-A5T (Homo sapiens, UniProt Q7RTX0+Q8TE23, A5T)), entry `CC1=CC(=O)NS(=O)(=O)O1` : 0.31

Measured Max ΔF/F0 (human TAS1R2-WT/TAS1R3-A5T (Homo sapiens, UniProt Q7RTX0+Q8TE23, A5T)), entry `OC[C@H]1O[C@H](O[C@]2(CCl)O[C@H](CCl)[C@@H](O)[C@@H]2O)[C@H](O)[C@@H](O)[C@H]1Cl` : 0.63

Measured Max ΔF/F0 (human TAS1R2-WT/TAS1R3-A5T (Homo sapiens, UniProt Q7RTX0+Q8TE23, A5T)), entry C[C@H](CC[C@@H](O[C@@H]1O[C@H](CO[C@@H]2O[C@H](CO)[C@@H](O)[C@H](O)[C@H]2O)[C@@H](O)[C@H](O)[C@H]1O[C@@H]1O[C@H](CO)[C@@H](O)[C@H](O)[C@H]1O)C(C)(C)O)[C@H]1CC[C@@]2(C)[C@@H]3CC=C4[C@@H](CC[C@H](O[C@@H]5O[C@H](CO[C@@H]6O[C@H](CO)[C@@H](O)[C@H](O)[C@H]6O)[C@@H](O)[C@H](O)[C@H]5O)C4(C)C)[C@]3(C)[C@H](O)C[C@]12C [Mogroside V, mogroside V] : 0.97

Measured Max ΔF/F0 (human TAS1R2-WT/TAS1R3-A5T (Homo sapiens, UniProt Q7RTX0+Q8TE23, A5T)), entry COc1ccc(CCC(=O)c2c(O)cc(O[C@@H]3O[C@H](CO)[C@@H](O)[C@H](O)[C@H]3O[C@@H]3O[C@@H](C)[C@H](O)[C@@H](O)[C@H]3O)cc2O)cc1O [NHDC, neohesperidin dihydrochalcone] : 1.24

Measured Max ΔF/F0 (human TAS1R2-WT/TAS1R3-A5T (Homo sapiens, UniProt Q7RTX0+Q8TE23, A5T)), entry `C=C(C)[C@@H]1CC=C(/C=N/O)CC1` : 1.42

Measured Max ΔF/F0 (human TAS1R2-WT/TAS1R3-A5T (Homo sapiens, UniProt Q7RTX0+Q8TE23, A5T)), entry `COC(=O)[C@H](Cc1ccccc1)NC(=O)[C@H](CC(=O)O)NCCC(C)(C)C` : 0.65
